Hey, just so you know, these numbers are from paper PMC3798018.

Biological target: PLD2 (HEK293-gfpPLD2 cells) (Homo sapiens, UniProt O14939)
Sequence (O14939 whole entry): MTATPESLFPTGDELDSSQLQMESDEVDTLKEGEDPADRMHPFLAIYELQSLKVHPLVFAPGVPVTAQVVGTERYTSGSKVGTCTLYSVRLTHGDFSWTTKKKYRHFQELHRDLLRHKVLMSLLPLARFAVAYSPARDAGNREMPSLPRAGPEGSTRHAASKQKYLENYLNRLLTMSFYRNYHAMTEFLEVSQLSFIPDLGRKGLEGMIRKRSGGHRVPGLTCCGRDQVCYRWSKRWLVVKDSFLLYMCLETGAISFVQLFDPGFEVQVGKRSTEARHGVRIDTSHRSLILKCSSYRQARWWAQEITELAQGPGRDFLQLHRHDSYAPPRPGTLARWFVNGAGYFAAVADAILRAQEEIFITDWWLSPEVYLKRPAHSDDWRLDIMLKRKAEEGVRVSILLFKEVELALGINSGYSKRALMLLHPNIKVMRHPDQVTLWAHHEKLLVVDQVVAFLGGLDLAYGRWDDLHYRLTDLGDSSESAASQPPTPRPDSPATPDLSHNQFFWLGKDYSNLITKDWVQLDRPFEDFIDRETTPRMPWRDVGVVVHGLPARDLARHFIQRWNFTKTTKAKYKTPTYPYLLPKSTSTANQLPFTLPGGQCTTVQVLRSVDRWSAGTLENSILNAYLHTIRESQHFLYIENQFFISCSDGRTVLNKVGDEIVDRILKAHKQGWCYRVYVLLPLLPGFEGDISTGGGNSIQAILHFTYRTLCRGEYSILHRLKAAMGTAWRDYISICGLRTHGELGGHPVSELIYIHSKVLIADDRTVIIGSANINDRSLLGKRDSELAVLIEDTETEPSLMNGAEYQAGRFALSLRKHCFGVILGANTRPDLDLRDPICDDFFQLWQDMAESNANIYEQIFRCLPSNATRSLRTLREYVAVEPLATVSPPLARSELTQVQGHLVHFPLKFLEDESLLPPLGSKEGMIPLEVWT
Experiment: Endogenous PLD activity assay
measure: IC50

>>> print(df.to_string())
                                   compound  measure  data_value
0  O=C(NCCN1CCC2(CC1)C(=O)NCN2c1ccccc1)c1ccc(C(F)(F)F)cc1 [Compound 70]     IC50     > 20 µM
